TESTED TARGET: HLA-B*3501 (human)
ASSAY NAME: competition with 125I probe peptide, purified HLA
Listed here are binders together with their documented IC50.

>  <BINDER>
LPTNASLSF (native HER2/neu peptide from position 65) [Her2/neu.65 (9-mer)]

>  <IC50 / nM>
114

$$$$
>  <BINDER>
FPSGVKPDI (analog peptide) [Her2/neu.600.F1I9]

>  <IC50 / nM>
9000

$$$$
>  <BINDER>
FPTNASLSF (analog peptide) [Her2/neu.65.F1 (9-mer)]

>  <IC50 / nM>
7.9

$$$$
>  <BINDER>
FPHQALLHTA (analog peptide) [Her2/neu.488.F1]

>  <IC50 / nM>
379

$$$$
>  <BINDER>
MPNPEGRYTI (analog peptide) [Her2/neu.282.I10]

>  <IC50 / nM>
111

$$$$
>  <BINDER>
FPTNASLSI (analog peptide) [Her2/neu.65.F1I9]

>  <IC50 / nM>
300

$$$$
>  <BINDER>
FPSGVKPDLSI (analog peptide) [Her2/neu.600.F1I11]

>  <IC50 / nM>
3270

$$$$
>  <BINDER>
FPCARVCYGL (analog peptide) [Her2/neu.336.F1]

>  <IC50 / nM>
450

$$$$

Provenance of the data: patent US20040018971A1
